Attribute: inhibition
Test name: Inhibition of Influenza A virus A/Duck/313/4/78(H5N3) sialidase at 3.33 x 10^-4M preincubated for 15 mins followed by MUNA substrate addition measured after 15 mins by fluorescence assay relative to control
Quick reminder: number only, in %, skip the unit.

Recorded inhibition, per entry:
CC(=O)N[C@H]1[C@H]([C@H](O)[C@H](O)CO)O[C@@](O[C@H]2CC[C@]3(C)[C@H]4C(=O)C=C5[C@@H]6C[C@@](C)(C(=O)O)CC[C@]6(C)CC[C@@]5(C)[C@]4(C)CC[C@H]3C2(C)C)(C(=O)O)C[C@@H]1O ... 16.4
CC(=O)N[C@H]1[C@H]([C@H](O)[C@H](O)CO)O[C@](O[C@H]2CC[C@]3(C)[C@H]4C(=O)C=C5[C@@H]6C[C@@](C)(CO)CC[C@]6(C)CC[C@@]5(C)[C@]4(C)CC[C@H]3C2(C)C)(C(=O)O)C[C@@H]1O ... 43.8
CC(=O)N[C@H]1[C@H]([C@H](O)[C@H](O)CO)O[C@](O[C@H]2CC[C@]3(C)[C@H]4C(=O)C=C5[C@@H]6C[C@@](C)(C(=O)O)CC[C@]6(C)CC[C@@]5(C)[C@]4(C)CC[C@H]3C2(C)C)(C(=O)O)C[C@@H]1O ... 25.8

Pending compound:
Query: Need inhibition, item COC(=O)[C@@]1(C)CC[C@]2(C)CC[C@]3(C)C(=CC(=O)[C@@H]4[C@@]5(C)CC[C@H](O[C@]6(C(=O)O)C[C@H](O)[C@@H](NC(C)=O)[C@H]([C@H](O)[C@H](O)CO)O6)C(C)(C)[C@@H]5CC[C@]43C)[C@@H]2C1
Result: 27.5

====

Attribute: inhibition
Test name: Inhibition of Influenza A virus A/Duck/313/4/78(H5N3) sialidase at 3.33 x 10^-4M preincubated for 15 mins followed by MUNA substrate addition measured after 15 mins by fluorescence assay relative to control
Quick reminder: number only, in %, skip the unit.

COC(=O)[C@@]1(C)CC[C@]2(C)CC[C@]3(C)C(=CC(=O)[C@@H]4[C@@]5(C)CC[C@H](O[C@@]6(C(=O)O)C[C@H](O)[C@@H](NC(C)=O)[C@H]([C@H](O)[C@H](O)CO)O6)C(C)(C)[C@@H]5CC[C@]43C)[C@@H]2C1 ... 46.2
CC(=O)N[C@H]1[C@H]([C@H](O)[C@H](O)CO)O[C@](O[C@H]2CC[C@]3(C)[C@H]4CC=C5[C@@H]6C[C@@](C)(CO)CC[C@]6(C)CC[C@@]5(C)[C@]4(C)CC[C@H]3C2(C)C)(C(=O)O)C[C@@H]1O ... 55.7

Query: Need inhibition, item CC(=O)N[C@H]1[C@H]([C@H](O)[C@H](O)CO)O[C@@](O[C@H]2CC[C@]3(C)[C@H]4CC=C5[C@@H]6C[C@@](C)(CO)CC[C@]6(C)CC[C@@]5(C)[C@]4(C)CC[C@H]3C2(C)C)(C(=O)O)C[C@@H]1O
Result: 57.6

====

Test name: Inhibition of Influenza A virus A/Duck/313/4/78(H5N3) sialidase at 3.33 x 10^-4M preincubated for 15 mins followed by MUNA substrate addition measured after 15 mins by fluorescence assay relative to control
Attribute: inhibition
Could you kindly put the unit after your number?

Recorded inhibition, per entry:
CC(=O)N[C@H]1[C@H]([C@H](O)[C@H](O)CO)O[C@@](O[C@H]2CC[C@]3(C)[C@H]4C(=O)C=C5[C@@H]6C[C@@](C)(CO)CC[C@]6(C)CC[C@@]5(C)[C@]4(C)CC[C@H]3C2(C)C)(C(=O)O)C[C@@H]1O ... 25.3%
CC(=O)N[C@H]1[C@H]([C@H](O)[C@H](O)CO)O[C@](O[C@H]2CC[C@]3(C)[C@H]4CC=C5[C@@H]6CC(C)(C)CC[C@]6(C(=O)O)CC[C@@]5(C)[C@]4(C)CC[C@H]3C2(C)C)(C(=O)O)C[C@@H]1O ... 34.6%
COC(=O)[C@]12CCC(C)(C)C[C@H]1C1=CC[C@@H]3[C@@]4(C)CC[C@H](O[C@@]5(C(=O)O)C[C@H](O)[C@@H](NC(C)=O)[C@H]([C@H](O)[C@H](O)CO)O5)C(C)(C)[C@@H]4CC[C@@]3(C)[C@]1(C)CC2 ... 70.7%

Pending compound:
Query: Need inhibition, item COC(=O)[C@]12CCC(C)(C)C[C@H]1C1=CC[C@@H]3[C@@]4(C)CC[C@H](O[C@]5(C(=O)O)C[C@H](O)[C@@H](NC(C)=O)[C@H]([C@H](O)[C@H](O)CO)O5)C(C)(C)[C@@H]4CC[C@@]3(C)[C@]1(C)CC2
Result: 65.7%

====

Target or system: Neuraminidase (Influenza A virus (A/Memphis/1/1971(H3N2)))
Test name: Inhibition of Influenza A virus A/Memphis/1/71(H3N2) sialidase at 3.33 x 10^-4M preincubated for 15 mins followed by MUNA substrate addition measured after 15 mins by fluorescence assay relative to control
Readout label: inhibition
Could you kindly put the unit after your number?

Recorded inhibition, per entry:
CC(=O)N[C@H]1[C@H]([C@H](O)[C@H](O)CO)O[C@@](O[C@H]2CC[C@]3(C)[C@H]4C(=O)C=C5[C@@H]6C[C@@](C)(C(=O)O)CC[C@]6(C)CC[C@@]5(C)[C@]4(C)CC[C@H]3C2(C)C)(C(=O)O)C[C@@H]1O ... 27.4%
CC(=O)N[C@H]1[C@H]([C@H](O)[C@H](O)CO)O[C@](O[C@H]2CC[C@]3(C)[C@H]4C(=O)C=C5[C@@H]6C[C@@](C)(C(=O)O)CC[C@]6(C)CC[C@@]5(C)[C@]4(C)CC[C@H]3C2(C)C)(C(=O)O)C[C@@H]1O ... 23.4%

Pending molecule:
Query: Need inhibition, item CC(=O)N[C@H]1[C@H]([C@H](O)[C@H](O)CO)O[C@](O[C@H]2CC[C@]3(C)[C@H]4C(=O)C=C5[C@@H]6C[C@@](C)(CO)CC[C@]6(C)CC[C@@]5(C)[C@]4(C)CC[C@H]3C2(C)C)(C(=O)O)C[C@@H]1O
Result: 40.3%

====

Target or system: Neuraminidase (Influenza A virus (A/Memphis/1/1971(H3N2)))
Test name: Inhibition of Influenza A virus A/Memphis/1/71(H3N2) sialidase at 3.33 x 10^-4M preincubated for 15 mins followed by MUNA substrate addition measured after 15 mins by fluorescence assay relative to control
Readout label: inhibition (%)
Quick reminder: number only, in %, skip the unit.

Recorded inhibition, per entry:
COC(=O)[C@]12CCC(C)(C)C[C@H]1C1=CC[C@@H]3[C@@]4(C)CC[C@H](O[C@]5(C(=O)O)C[C@H](O)[C@@H](NC(C)=O)[C@H]([C@H](O)[C@H](O)CO)O5)C(C)(C)[C@@H]4CC[C@@]3(C)[C@]1(C)CC2 ... 70.7
COC(=O)[C@@]1(C)CC[C@]2(C)CC[C@]3(C)C(=CC(=O)[C@@H]4[C@@]5(C)CC[C@H](O[C@]6(C(=O)O)C[C@H](O)[C@@H](NC(C)=O)[C@H]([C@H](O)[C@H](O)CO)O6)C(C)(C)[C@@H]5CC[C@]43C)[C@@H]2C1 ... 39.9
CC(=O)N[C@H]1[C@H]([C@H](O)[C@H](O)CO)O[C@](O[C@H]2CC[C@]3(C)[C@H]4CC=C5[C@@H]6C[C@@](C)(CO)CC[C@]6(C)CC[C@@]5(C)[C@]4(C)CC[C@H]3C2(C)C)(C(=O)O)C[C@@H]1O ... 68.7

Pending compound:
Query: Need inhibition, item COC(=O)[C@]12CCC(C)(C)C[C@H]1C1=CC[C@@H]3[C@@]4(C)CC[C@H](O[C@@]5(C(=O)O)C[C@H](O)[C@@H](NC(C)=O)[C@H]([C@H](O)[C@H](O)CO)O5)C(C)(C)[C@@H]4CC[C@@]3(C)[C@]1(C)CC2
Result: 64.9

====

Target or system: Neuraminidase (Influenza A virus (A/Puerto Rico/8/1934(H1N1))) (UniProt P03468)
Sequence (P03468 whole entry): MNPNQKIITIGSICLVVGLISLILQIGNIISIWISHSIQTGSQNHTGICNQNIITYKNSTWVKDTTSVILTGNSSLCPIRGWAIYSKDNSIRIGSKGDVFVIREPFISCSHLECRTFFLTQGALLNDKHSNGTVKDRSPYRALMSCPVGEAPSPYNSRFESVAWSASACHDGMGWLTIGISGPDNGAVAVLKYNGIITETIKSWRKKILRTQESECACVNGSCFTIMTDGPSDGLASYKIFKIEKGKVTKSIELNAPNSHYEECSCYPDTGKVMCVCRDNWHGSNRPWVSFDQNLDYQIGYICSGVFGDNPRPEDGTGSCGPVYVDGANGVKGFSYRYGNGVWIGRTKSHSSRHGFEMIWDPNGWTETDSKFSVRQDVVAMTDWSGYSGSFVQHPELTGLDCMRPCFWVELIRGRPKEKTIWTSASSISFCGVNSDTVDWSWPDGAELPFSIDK
Test name: Inhibition of Influenza A virus A/PR/8/34(H1N1) sialidase at 3.33 x 10^-4M preincubated for 15 mins followed by MUNA substrate addition measured after 15 mins by fluorescence assay relative to control
Readout label: inhibition (%)
Quick reminder: number only, in %, skip the unit.

Recorded inhibition, per entry:
COC(=O)[C@@]1(C)CC[C@]2(C)CC[C@]3(C)C(=CC(=O)[C@@H]4[C@@]5(C)CC[C@H](O[C@]6(C(=O)O)C[C@H](O)[C@@H](NC(C)=O)[C@H]([C@H](O)[C@H](O)CO)O6)C(C)(C)[C@@H]5CC[C@]43C)[C@@H]2C1 ... 52.2
CC(=O)N[C@H]1[C@H]([C@H](O)[C@H](O)CO)O[C@@](O[C@H]2CC[C@]3(C)[C@H]4C(=O)C=C5[C@@H]6C[C@@](C)(CO)CC[C@]6(C)CC[C@@]5(C)[C@]4(C)CC[C@H]3C2(C)C)(C(=O)O)C[C@@H]1O ... 50.3

Pending molecule:
Query: GET /values?readout=inhibition&system=Neuraminidase (Influenza A virus (A/Puerto Rico/8/1934(H1N1))) (UniProt P03468)&item= COC(=O)[C@]12CCC(C)(C)C[C@H]1C1=CC[C@@H]3[C@@]4(C)CC[C@H](O[C@@]5(C(=O)O)C[C@H](O)[C@@H](NC(C)=O)[C@H]([C@H](O)[C@H](O)CO)O5)C(C)(C)[C@@H]4CC[C@@]3(C)[C@]1(C)CC2
Result: 89.9
